# target_desc: ADP-ribosylation factor GTPase-activating protein 1 (Rattus norvegicus)
# assay: blockers of ARFGAP1-stimulated ARF1 GTP hydrolysis – biochemical, fluorescence polarization, GDP tracer, primary screen (AID 651572);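 note: 0% = DMSO wells with enzyme and 100% = wells lacking Arfgap1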
# applied_conditions: GDP FP detection, at 16.5 µM, stronger effect = higher value
Screen size: about 360,000 compounds; about 950 (0.26%) were called active. Shown is part of a subset that was picked to be rich in actives.
result_type: inhibition (%)
Numbers only, in %.

Solved entries (count: 5):
Entry `COC(=O)C(C(=O)OC)c1ccccc1NS(=O)(=O)c1cccc2ccccc12` ; inhibition = -11.2

Record summary for `Cc1ccc(-n2ncc3c2ncn2nc(-c4ccco4)nc32)c(C)c1` : reported inhibition = 44.3

Field inhibition (entry COc1ccc(-c2ccccc2C2Cc3nnccc3CN2C(=O)Nc2ccccc2)cc1 (stereo not given) ) reads 0.85

Looking up `COC(=O)[C@]12C[C@H](CC(=O)NCCc3ccccc3OC)C(=O)N(Cc3ccccc3)C1=C[C@H](C(C)C)O[C@@H]2C1CC1` , I found its inhibition recorded as -5.59

Note to self: inhibition recorded for `COc1ccc(Cl)cc1NC(=O)Cn1nc(-c2ccc(C)cc2)n(C)c1=S` was 41.6

Provide each entry's inhibition from the list below.
1. COC(=O)CSc1ncnc2c1cnn2-c1ccc(C)cc1C
2. C[C@@H]1CN([C@H](C)CO)C(=O)CCCn2cc(nn2)CO[C@H]1CN(C)C(=O)Nc1ccc(N2CCCCC2)cc1
3. Cc1ccc(-n2ncc3c(=O)n(-c4ccc(C)c(C)c4)c(-c4ccco4)nc32)cc1

[reply]
8
-7.3
-1.3

Hey, can you go through the list below and give me inhibition for every item?
1. CN1CCCCC(NC(=O)C(C)(C)C)C1=O (stereo not given)
2. COc1ccc(C)cc1NC(=O)CSc1ccc(Cl)cc1

[reply]
1. -2.4
2. -5.43

====

For each record, write down the corresponding inhibition.
# target_desc: ADP-ribosylation factor GTPase-activating protein 1 (Rattus norvegicus)
# assay: blockers of ARFGAP1-stimulated ARF1 GTP hydrolysis – biochemical, fluorescence polarization, GDP tracer, primary screen (AID 651572);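 note: 0% = DMSO wells with enzyme and 100% = wells lacking Arfgap1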
# applied_conditions: GDP FP detection, at 16.5 µM, stronger effect = higher value
The campaign covered roughly 360,000 compounds. About 950 (0.26%) were called active. What follows is part of a selection rich in actives, with near analogues and random picks from the rest.
Numbers only, in %.

// below: answered compounds
# `COc1cccc(CNc2ncc(-c3ccccc3)n2C)c1` with ADP-ribosylation factor GTPase-activating protein 1 (Rattus norvegicus): inhibition is -4.8

Field inhibition (system: ADP-ribosylation factor GTPase-activating protein 1 (Rattus norvegicus)) for entry `CCCCCCCCN1C(=O)[C@@H](CC(=O)NCc2ccccc2)C[C@@]2(C(=O)OC)C1=C[C@H](C(C)(C)C)O[C@@H]2C` = 1.82

ADP-ribosylation factor GTPase-activating protein 1 (Rattus norvegicus) data for `COc1ccccc1CCn1cnc(-c2ccccc2)c1C(C)C` ; its inhibition: 2.03

Given the compound `C=CC[C@]12C[C@@]3(O[C@H](c4ccc(C(F)(F)F)cc4)N=C3C[C@H](c3ccc(OC)cc3)[C@H]1C)N(C1CCN(Cc3ccccc3)CC1)C2=O` and test system ADP-ribosylation factor GTPase-activating protein 1 (Rattus norvegicus), the measured inhibition is 4.67

inhibition on ADP-ribosylation factor GTPase-activating protein 1 (Rattus norvegicus) for `C[C@H](O)[C@@H]1CN2CCc3ccc(-c4ccc5c(c4)OCO5)cc3[C@@H]2C[C@@H]1N(C)C(=O)C1CCCCC1` is -7.53

Okay, here is my list. What is inhibition for each of these?
1. COCCCNc1ccn2nc(-c3ccc(CC(C)C)cc3)cc2n1
2. N#Cc1cccc(C(=O)NCC2CCN(C(=O)C(=O)c3cc4ccccc4o3)CC2)c1
3. O=C(NCc1ccccc1)[C@H]1CCCN1C(=O)[C@@H]1CCCN1C(=O)c1ccc(Cl)cc1Cl
4. COC(=O)[C@]12C[C@H](CC(=O)N3CCN(C(=O)C4CC4)CC3)C(=O)N(Cc3ccc4c(c3)OCO4)C1=C[C@H](C(C)(C)C)O[C@@H]2C
5. CCSc1ccccc1C(=O)NCc1ccc(OC)cc1
6. COc1ccc(CNC(=O)C(C)NCc2ccccc2Cl)cc1 (configuration not stated)
7. Nc1[nH]c(C(=O)c2ccc(Br)cc2)c(-c2ccc3c(c2)OCO3)c1C(=O)NCCc1c[nH]c2ccccc12

[reply]
12.8
8.35
11.1
11.2
-5.39
-1.63
15.2
